# assayed.target: full-length human PKCι (Homo sapiens)
# Construct: Recombinant, full-length human PKCι expressed in Sf21 insect cells is also commercially available
# Sequence (P41743 1-596): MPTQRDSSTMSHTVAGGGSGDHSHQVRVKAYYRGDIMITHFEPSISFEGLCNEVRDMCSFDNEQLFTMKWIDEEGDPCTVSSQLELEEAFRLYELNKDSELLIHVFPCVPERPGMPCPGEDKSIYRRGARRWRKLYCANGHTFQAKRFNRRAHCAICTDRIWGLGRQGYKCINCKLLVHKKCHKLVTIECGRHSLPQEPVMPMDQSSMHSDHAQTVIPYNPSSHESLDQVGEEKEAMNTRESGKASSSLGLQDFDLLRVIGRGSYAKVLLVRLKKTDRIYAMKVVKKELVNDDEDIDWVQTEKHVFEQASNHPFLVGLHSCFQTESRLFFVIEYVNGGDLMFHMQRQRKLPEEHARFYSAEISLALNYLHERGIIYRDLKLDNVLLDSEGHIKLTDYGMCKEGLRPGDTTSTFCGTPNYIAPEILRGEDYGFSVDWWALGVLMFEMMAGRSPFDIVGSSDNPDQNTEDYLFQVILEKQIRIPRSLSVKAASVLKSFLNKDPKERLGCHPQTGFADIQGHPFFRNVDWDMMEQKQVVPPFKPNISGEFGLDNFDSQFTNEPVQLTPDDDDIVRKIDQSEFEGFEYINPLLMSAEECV
# assay.method.text: PKCι IC50 IMAP assay, full-length PKCι at 150 μM ATP
# condition.label: read-out: IC50 in IMAP assay against full length PKCi at 150 μM ATP
pIC50: −log10 of the molar value.
// pIC50 lookup, one value per entry

Below are worked cases with known answers.
compound: COc1cncc2nc(-c3ccncc3)nc(N3CCN[C@H](C)C3)c12 [Example 52]
experimental.result: 5.00 to 6.00
--
compound: COc1cncc2nc(-c3ccnc4[nH]ccc34)nc(N3CCNCC3)c12 [Example 1200]
experimental.result: > 7.00
--
compound: CCCc1ccc(F)c(Nc2cc(-c3nc(N4CCNCC4)c4c(C5CC5)cncc4n3)ccn2)c1 [Example 640]
experimental.result: > 7.00
--
compound: Fc1cncc(Nc2cc(-c3nc(N4CCNCC4)c4c(C5CC5)cncc4n3)ccn2)c1 [Example 535]
experimental.result: 6.00 to 7.00
--
compound: COc1cncc2nc(-c3ccnc(Nc4cc(C)ccn4)c3)nc(N3CCNCC3)c12 [Example 363]
experimental.result: > 7.00

// Cc1cccc(-c2nccc3c(NC[C@@H](N)Cc4ccccc4)nc(-c4ccncc4)nc23)c1 [Example 119] : pIC50 value = 5.00 to 6.00

Entry Cn1nccc1-c1ccc(Nc2cc(-c3nc(N4CCNCC4)c4c(C5CC5)cncc4n3)ccn2)c(F)c1 [Example 2055] ; pIC50 = > 7.00

###

# assayed.target: full-length human PKCι (Homo sapiens)
# Construct: Recombinant, full-length human PKCι expressed in Sf21 insect cells is also commercially available
# assay.method.text: PKCι IC50 IMAP assay, full-length PKCι at 150 μM ATP
# condition.label: read-out: IC50 in IMAP assay against full length PKCi at 150 μM ATP
measure.name: IC50

compound: CN(c1nc(-c2ccnc(Nc3c(F)cccc3F)c2)nc2cncc(C3CC3)c12)C1CCN(C2CCC2)CC1
experimental.result: 100 to 1000 nM
--
compound: COc1cncc2nc(-c3ccnc(Nc4ccc(C5CCOCC5)cc4)c3)nc(N[C@@H]3CCNC3)c12
experimental.result: < 100 nM
--
compound: c1cc(Nc2cc(-c3nc(N4CCC4)c4c(C5CC5)cncc4n3)ccn2)cc(N2CCNCC2)c1
experimental.result: 100 to 1000 nM
--
compound: COc1ccccc1CC(=O)Nc1cc(-c2nc(N[C@@H]3CCNC3)c3ccncc3n2)ccn1
experimental.result: 100 to 1000 nM
--
compound: c1cc(Nc2cc(-c3nc(N[C@@H]4CCNC4)c4ccncc4n3)ccn2)ncn1
experimental.result: < 100 nM

Memo: Fc1cccc(F)c1Nc1cc(-c2nc(N3CCNCC3)c3c(C4CC4)cnc(C4CC4)c3n2)ccn1 , reported IC50: 100 to 1000 nM

IC50 measured on c1cc(-c2nc(N3CCN[C@@H](C4CC4)C3)c3c(C4CC4)cncc3n2)c2cc[nH]c2n1 = < 100 nM

Record O[C@@H]1CCCN(c2nc(-c3ccnc(Nc4cccc(F)n4)c3)nc3cncc(C4CC4)c23)C1 , field IC50: 1000 to 10000 nM

Recorded IC50 (compound COc1cncc2nc(-c3ccnc(Nc4ccccc4)c3)nc(N3CCC(O)C(CO)C3)c12 (stereo not shown) ): 1000 to 10000 nM

Data point: COc1cncc2nc(-c3ccnc(Nc4ccc(C(F)(F)F)cn4)c3)nc(N3CCNCC3)c12 ; IC50 = < 100 nM

Noted for Fc1cc(F)c(Nc2cc(-c3nc(NC4CCNC4)c4c(C5CC5)cncc4n3)ccn2)nc1F (stereo not shown) : its IC50 reads < 100 nM

###

# assayed.target: full-length human PKCι (Homo sapiens)
# Construct: Recombinant, full-length human PKCι expressed in Sf21 insect cells is also commercially available
# Sequence (P41743 1-596): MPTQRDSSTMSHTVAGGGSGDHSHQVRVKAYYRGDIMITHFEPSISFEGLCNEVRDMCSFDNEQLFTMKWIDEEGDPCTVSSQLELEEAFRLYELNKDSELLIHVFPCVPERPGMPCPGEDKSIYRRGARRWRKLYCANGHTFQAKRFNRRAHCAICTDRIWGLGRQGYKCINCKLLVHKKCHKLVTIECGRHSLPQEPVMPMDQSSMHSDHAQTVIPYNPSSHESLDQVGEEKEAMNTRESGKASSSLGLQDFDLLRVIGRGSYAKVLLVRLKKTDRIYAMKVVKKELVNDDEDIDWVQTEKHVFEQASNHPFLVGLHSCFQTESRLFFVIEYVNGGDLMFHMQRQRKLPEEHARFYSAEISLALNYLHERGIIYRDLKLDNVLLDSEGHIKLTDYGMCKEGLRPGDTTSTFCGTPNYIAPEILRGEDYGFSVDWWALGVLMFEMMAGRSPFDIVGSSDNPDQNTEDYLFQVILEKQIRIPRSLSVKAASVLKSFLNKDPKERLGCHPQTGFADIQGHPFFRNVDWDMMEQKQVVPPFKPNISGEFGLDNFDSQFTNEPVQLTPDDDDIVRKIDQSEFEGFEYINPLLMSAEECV
# assay.method.text: PKCι IC50 IMAP assay, full-length PKCι at 150 μM ATP
# condition.label: read-out: IC50 in IMAP assay against full length PKCi at 150 μM ATP
pIC50: −log10 of the molar value.
pIC50 values for the compounds below.

Use these answered entries as a reference point.
compound: CNc1cc(-c2nc(N3CCNCC3)c3c(OC)cncc3n2)ccn1
pIC50: 6.00 to 7.00
//
compound: N[C@H](CNc1nc(-c2ccncc2)nc2c(-c3ccccc3)nccc12)Cc1ccccc1
pIC50: 6.00 to 7.00

Memo: COc1cncc2nc(-c3ccncc3)nc(N3CCN[C@@H](C(O)c4ccc(F)cc4)C3)c12 (mixture of isomers) , reported pIC50: > 7.00

pIC50 reported for this compound Nc1cccc(CC(=O)Nc2cc(-c3nc(N[C@@H]4CCNC4)c4ccncc4n3)ccn2)c1 : 6.00 to 7.00

Note to self: pIC50 recorded for Nc1cc(-c2nc(N3CCNCC3)c3c(C4CC4)cncc3n2)ccn1 was > 7.00

The compound identified as CN1CCN(c2cccc(Nc3cc(-c4nc(N5CC[C@@H](CO)C5)c5c(C6CC6)cncc5n4)ccn3)c2)CC1 registered its pIC50 at > 7.00

Per the record, Fc1ccc2nc(Nc3cc(-c4nc(N5CCNCC5)c5c(C6CC6)cncc5n4)ccn3)nn2c1 has pIC50 of > 7.00

###

# assayed.target: full-length human PKCι (Homo sapiens)
# Construct: Recombinant, full-length human PKCι expressed in Sf21 insect cells is also commercially available
# assay.method.text: PKCι IC50 IMAP assay, full-length PKCι at 150 μM ATP
# condition.label: read-out: IC50 in IMAP assay against full length PKCi at 150 μM ATP
pIC50: −log10 of the molar value.
measure.name: pIC50

molecule: Clc1ccc2[nH]c3nccc(-c4nc(N5CCNCC5)c5c(C6CCC6)cncc5n4)c3c2c1
pIC50: > 7.00

molecule: c1ccc(Nc2cc(-c3nc(NC[C@@H]4CCCN4)c4c(C5CC5)cncc4n3)ccn2)cc1
pIC50: 6.00 to 7.00

molecule: COc1cncc2nc(-c3ccnc(Nc4cc(C(F)(F)F)ccn4)c3)nc(N3CCNCC3)c12
pIC50: > 7.00

molecule: N#Cc1ccnc(Nc2cc(-c3nc(N4CC[C@@H](O)[C@H](O)C4)c4c(C5CC5)cncc4n3)ccn2)c1 (racemic)
pIC50: 6.00 to 7.00

get_value(item= Cc1ccc(C)c(Nc2cc(-c3nc(N4CCNCC4)c4c(C5CC5)cncc4n3)ccn2)c1 , readout=pIC50) returns > 7.00

Clc1ncc(Cl)c2c(N3CCNCC3)nc(-c3ccncc3)nc12 has a reported pIC50 of > 7.00

FYI, the data here is from patent US9914730B2.
